# System: PC-14
# assay-info: relative viability (nuclei count vs DMSO), 5 days (fraction); higher = more cells survive
# experimental-parameters: first compound 0.0002 µM

compound	relative viability
CC(=O)O[C@@]12CO[C@@H]1C[C@H](O)[C@@]1(C)C(=O)[C@H](O)C3=C(C)[C@@H](OC(=O)[C@H](O)[C@@H](NC(=O)OC(C)(C)C)c4ccccc4)C[C@@](O)([C@@H](OC(=O)c4ccccc4)[C@H]21)C3(C)C [Docetaxel] + C[C@@H](Oc1cc(-c2cnn(C3CCNCC3)c2)cnc1N)c1c(Cl)ccc(F)c1Cl [Crizotinib] (partner 1 µM)	0.932
CC(=O)O[C@@]12CO[C@@H]1C[C@H](O)[C@@]1(C)C(=O)[C@H](O)C3=C(C)[C@@H](OC(=O)[C@H](O)[C@@H](NC(=O)OC(C)(C)C)c4ccccc4)C[C@@](O)([C@@H](OC(=O)c4ccccc4)[C@H]21)C3(C)C [Docetaxel] + Nc1nc2[nH]cc(CCc3ccc(C(=O)N[C@@H](CCC(=O)O)C(=O)O)cc3)c2c(=O)[nH]1 [Pemetrexed] (partner 0.2 µM)	0.13
CC(=O)O[C@@]12CO[C@@H]1C[C@H](O)[C@@]1(C)C(=O)[C@H](O)C3=C(C)[C@@H](OC(=O)[C@H](O)[C@@H](NC(=O)OC(C)(C)C)c4ccccc4)C[C@@](O)([C@@H](OC(=O)c4ccccc4)[C@H]21)C3(C)C [Docetaxel] + Cc1nc(NC(=O)N2CCC[C@H]2C(N)=O)sc1-c1ccnc(C(C)(C)C(F)(F)F)c1 [Alpelisib] (partner 2 µM)	0.895
CC(=O)O[C@@]12CO[C@@H]1C[C@H](O)[C@@]1(C)C(=O)[C@H](O)C3=C(C)[C@@H](OC(=O)[C@H](O)[C@@H](NC(=O)OC(C)(C)C)c4ccccc4)C[C@@](O)([C@@H](OC(=O)c4ccccc4)[C@H]21)C3(C)C [Docetaxel] + O=C(CCCCCCC(=O)Nc1ccccc1)NO [Vorinostat] (partner 1 µM)	0.725

Entry source: the supplement of paper PMC10307832
